Biological target: T1, human FLT3 (human, UniProt P36888 27-993)
T1 construct: On transfected CHO cells, or on the FLT3 positive human AML cell lines EOL-1 / MV4-11 where the row says so; also called hu FLT3; full length human FLT3
Assay: FACS, scFv on CHO-human FLT3 pre-incubated with FLT3 ligand (competitor)
readout: median [+ligand]/median [w/o ligand]*100

INSERT INTO results (binder, readout, test_value) VALUES
  ('FL-43 scFv (scFv, periplasmic prep) scFv: QVTLKESGPVLVKPTETLTLTCTVSGFSFRNARMGVSWIRQPPGKCLEWLAHIFSNDEKSYSTSLKSRLTISKDTSKSQVVLTLTNMDPVDTATYFCARMPEYSSGWSGAFDIWGQGTMVTVSSGGGGSGGGGSGGGGSDIQMTQSPSSLSASVGDRVTITCRASQGIRNDLVWYQQKPGKAPKRLIYGTSTLQSGVPSRFSGSGSGTEFTLTISSLQPEDFATYYCLQHNSYPLTFGCGTKVEIK', 'median [+ligand]/median [w/o ligand]*100', '≥ 75%');

Next up:
Form field median [+ligand]/median [w/o ligand]*100, entry FL-38 scFv (scFv, periplasmic prep) scFv: QVTLKESGPVLVKPTETLTLTCTVSGFSFRNARMGVSWIRQPPGKALEWLAHIFSNDEKSYSTSLKSRLTISKDTSKSQVVLTLTNMDPVDTATYFCARMPEYSSGWSGAFDIWGQGTLVTVSSGGGGSGGGGSGGGGSDIQMTQSPSSLSASVGDRVTITCRASQGIRNDLGWYQQKPGKAPKRLIYAASSLQSGVPSRFSGSGSGTEFTLTISSLQPEDFATYYCLQHNSYPLTFGGGTKLEIK : ≥ 75%
